For each of the compounds below, state its GI50.
PROTOCOL SUMMARY: Growth inhibition of human A375-C5 cells after 48 hrs by sulforhodamine B assay
Type: functional
CONDITION CONTEXT: A375-C5, 48 h
Give bare numbers, in µM.

INSERT INTO assay_data (compound, value) VALUES
  ('CC1Oc2c(O)c(O)c3c(=O)cc(-c4ccccc4)oc3c2C1(C)C (stereo not given)', 47.7),
  ('CC(C)=CCC/C(C)=C/COc1ccc2c(=O)c(O)c(-c3ccccc3)oc2c1', 7.2),
  ('CC(C)=CCOc1ccc2c(=O)c(O)c(-c3ccccc3)oc2c1', 30.3),
  ('CC1(C)CCc2c(c(O)c(O)c3c(=O)cc(-c4ccccc4)oc23)O1', 27.4),
  ('CC(C)=CCOc1cc2oc(-c3ccccc3)cc(=O)c2c(O)c1O', 9.2);

Count: 2. Required value per item: GI50.
1. CC(C)=CCC/C(C)=C/COc1cc2oc(-c3ccccc3)cc(=O)c2c(O)c1O
2. CC1Oc2ccc3c(=O)c(O)c(-c4ccccc4)oc3c2C1(C)C (stereo not given)

5.3
7.6
